Where these numbers come from: ChEMBL document CHEMBL4346704

test-description: Binding affinity to polyA-polyU dsRNA (unknown origin) assessed as change in melting temperature at 0.1 ratio of compound to RNA by spectrophotometric analysis
Assay type: nucleic-acid assay
Please respond with reported ΔTm for every item in the list.
Give bare numbers, in °C.

Sample records with ΔTm:
Clc1ccc2[nH]c(-c3ccc(Cn4cc(COCc5cn(Cc6ccc(-c7nc8cc(Cl)ccc8[nH]7)o6)nn5)nn4)o3)nc2c1; 1
c1ccc2[nH]c(-c3ccc(Cn4cc(COCc5cn(Cc6ccc(-c7nc8ccccc8[nH]7)o6)nn5)nn4)o3)nc2c1; 0.6

Kindly review the next molecule as well.
Entry Fc1ccc2[nH]c(-c3ccc(Cn4cc(CCCc5cn(Cc6ccc(-c7nc8cc(F)ccc8[nH]7)o6)nn5)nn4)o3)nc2c1 : reported ΔTm = ?
0.8

###

For each of the compounds below, state its ΔTm.
Test system: Calf thymus DNA
test-description: Binding affinity to calf thymus DNA assessed as change in melting temperature at compound to calf thymus DNA polynucleotide ratio of 0.5 by spectrophotometric analysis
Assay type: nucleic-acid assay
condition-info: Bos taurus
Dear colleague, please send the value followed by its unit.

Look over these answered cases.
c1ccc2[nH]c(-c3ccc(Cn4cc(COCc5cn(Cc6ccc(-c7nc8ccccc8[nH]7)o6)nn5)nn4)o3)nc2c1; 1.1 °C
c1ccc2[nH]c(-c3ccc(Cn4cc(CCCc5cn(Cc6ccc(-c7nc8ccccc8[nH]7)o6)nn5)nn4)o3)nc2c1; 3.2 °C

Required: ΔTm, one value per compound below.
1. Clc1ccc2[nH]c(-c3ccc(Cn4cc(CCCc5cn(Cc6ccc(-c7nc8cc(Cl)ccc8[nH]7)o6)nn5)nn4)o3)nc2c1
2. c1ccc2[nH]c(-c3ccc(Cn4cc(COc5ccc(OCc6cn(Cc7ccc(-c8nc9ccccc9[nH]8)o7)nn6)cc5)nn4)o3)nc2c1
3. Fc1ccc2[nH]c(-c3ccc(Cn4cc(COc5ccc(OCc6cn(Cc7ccc(-c8nc9cc(F)ccc9[nH]8)o7)nn6)cc5)nn4)o3)nc2c1
4. Cl.Cl.N=C(N)c1ccc2[nH]c(-c3ccc(Cn4cc(CCCc5cn(Cc6ccc(-c7nc8cc(C(=N)N)ccc8[nH]7)o6)nn5)nn4)o3)nc2c1

2.5 °C
2.6 °C
3.4 °C
13.8 °C

###

test-description: Ratio of compound concentration to polynucleotide phosphate concentration for binding affinity to polyA-polyU dsRNA (unknown origin)
Type: nucleic-acid assay
quantity: Ratio
One number for each entry.

Fc1ccc2[nH]c(-c3ccc(Cn4cc(CCCc5cn(Cc6ccc(-c7nc8cc(F)ccc8[nH]7)o6)nn5)nn4)o3)nc2c1; 0.5
c1ccc2[nH]c(-c3ccc(Cn4cc(COc5ccc(OCc6cn(Cc7ccc(-c8nc9ccccc9[nH]8)o7)nn6)cc5)nn4)o3)nc2c1; 0.3
CC(C)NC(=N)c1ccc2[nH]c(-c3ccc(Cn4cc(CCCc5cn(Cc6ccc(-c7nc8cc(C(=N)NC(C)C)ccc8[nH]7)o6)nn5)nn4)o3)nc2c1.Cl.Cl; 0.58
CC(C)NC(=N)c1ccc2[nH]c(-c3ccc(Cn4cc(COCc5cn(Cc6ccc(-c7nc8cc(C(=N)NC(C)C)ccc8[nH]7)o6)nn5)nn4)o3)nc2c1; 0.3
Cl.Cl.c1cc2[nH]c(-c3ccc(Cn4cc(COCc5cn(Cc6ccc(-c7nc8cc(C9=NCCN9)ccc8[nH]7)o6)nn5)nn4)o3)nc2cc1C1=NCCN1; 0.85

Switching to the query record.
Quick check: Ratio of Cl.Cl.N=C(N)c1ccc2[nH]c(-c3ccc(Cn4cc(CCCc5cn(Cc6ccc(-c7nc8cc(C(=N)N)ccc8[nH]7)o6)nn5)nn4)o3)nc2c1 ?
0.3
